Hello, the source for this data is ChEMBL document CHEMBL3779805, in case you need it.

pKi: −log10 of the molar value.
Prothrombin (Homo sapiens, UniProt P00734): reported pKi for various compounds.

Example entries and their recorded answers appear below.
> print(dat)
                           structure.smiles                               test.target  test.readout  reported.value
1  COC(=O)Nc1ccc(-c2ccnc([C@H](Cc3ccccc3)NC(=O)[C@H]3CC[C@H](CN)CC3)c2)cc1  Prothrombin (Homo sapiens, UniProt P00734)           pKi          < 4.90
2  NC[C@H]1CC[C@H](C(=O)N[C@@H](Cc2ccccc2)c2cc(-c3ccc4[nH]nc(O)c4c3)ccn2)CC1  Prothrombin (Homo sapiens, UniProt P00734)           pKi          < 4.90

Field: next compound
Provide the reported pKi (system: Prothrombin (Homo sapiens, UniProt P00734)) for COC(=O)Nc1ccc(-c2ccnc([C@H](Cc3ccccc3)NC(=O)/C=C/c3cc(Cl)ccc3-n3cnnn3)c2)cc1 < 4.87

###

# Test target: Tissue-type plasminogen activator (Homo sapiens, UniProt P00750)
# Sequence (P00750 whole entry): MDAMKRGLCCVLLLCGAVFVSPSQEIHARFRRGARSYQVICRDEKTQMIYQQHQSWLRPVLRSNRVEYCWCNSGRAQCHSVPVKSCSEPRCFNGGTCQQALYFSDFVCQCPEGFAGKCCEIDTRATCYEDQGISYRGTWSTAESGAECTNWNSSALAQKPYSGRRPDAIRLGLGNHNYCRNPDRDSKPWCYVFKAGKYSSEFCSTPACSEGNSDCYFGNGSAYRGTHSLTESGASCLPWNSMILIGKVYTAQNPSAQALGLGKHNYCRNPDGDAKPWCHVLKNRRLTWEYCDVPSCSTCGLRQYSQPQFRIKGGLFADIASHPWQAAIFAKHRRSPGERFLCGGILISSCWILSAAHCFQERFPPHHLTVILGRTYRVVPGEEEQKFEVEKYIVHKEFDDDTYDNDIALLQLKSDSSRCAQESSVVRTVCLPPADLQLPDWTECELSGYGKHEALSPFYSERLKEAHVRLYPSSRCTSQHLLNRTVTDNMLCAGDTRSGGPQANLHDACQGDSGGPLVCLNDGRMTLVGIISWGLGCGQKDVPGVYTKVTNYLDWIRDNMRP
Test readout: Ki (µM)
Quick reminder: number only, in µM, skip the unit.

Specify reported Ki for the compound shown: COC(=O)Nc1ccc(-c2ccnc([C@H](Cc3ccccc3)NC(=O)/C=C/c3cc(Cl)ccc3-n3cnnn3)c2)cc1 10.5

###

# Protocol: Oral bioavailability in beagle dog plasma at 0.43 mg/kg by LC-MS/MS method
# Type: ADME, organism-based, Canis lupus familiaris
Test readout: bioavailability
Form entry: enter the amount, then its unit.

Give the reported value of bioavailability for this record: NC[C@H]1CC[C@H](C(=O)N[C@@H](Cc2ccccc2)c2cc(-c3ccc4c(N)n[nH]c4c3)ccn2)CC1 0%

###

Reported values: pKi for Coagulation factor XI (Homo sapiens), one per item.
Remember the convention: pKi equals -log10 of concentration in molar.

Answered examples (4):
> print(dat)
                                   molecule  test.readout  reported.value
1  NC[C@H]1CC[C@H](C(=O)NC(Cc2ccccc2)c2cc(-c3ccc4[nH]nc(O)c4c3)ccn2)CC1 (mixture of isomers)           pKi            8.12
2  NC[C@H]1CC[C@H](C(=O)N[C@@H](Cc2ccccc2)c2cc(-c3ccc4c(N)n[nH]c4c3)ccn2)CC1           pKi            8.14
3  COC(=O)Nc1ccc(-c2cc([C@H](Cc3ccccc3)NC(=O)[C@H]3CC[C@H](CN)CC3)ncn2)cc1           pKi            8.04
4  NC[C@H]1CC[C@H](C(=O)N[C@H](Cc2ccccc2)c2cc(-c3ccc4c(N)noc4c3)ccn2)CC1           pKi            8.50

Consider the record given below.
Give pKi for NC[C@H]1CC[C@H](C(=O)NC(Cc2ccccc2)c2cc(-c3ccc4c(N)ncnc4c3)ccn2)CC1 (mixture of isomers) tested on Coagulation factor XI (Homo sapiens). 8.00

###

# Protocol: Half life in beagle dog plasma at 0.4 mg/kg, iv and 0.8 mg/kg, po by LC-MS/MS method
# Format: ADME, organism-based, Canis lupus familiaris
Test readout: half-life (h)
Report as a plain number; the unit h is understood.

Recall and state the measured half-life for COC(=O)Nc1ccc(-c2cc([C@H](Cc3ccccc3)NC(=O)[C@H]3CC[C@H](CN)CC3)[nH]c(=O)c2)cc1 . 1.1

###

# Test system: Canis familiaris
# Protocol: Clearance in beagle dog plasma at 0.27 mg/kg, iv and 0.43 mg/kg, po administered in cassette format by LC-MS/MS method
# Format: ADME, organism-based, Canis lupus familiaris
# Measurement parameters: in vivo
Test readout: clearance (mL/min/kg)
Reply numerically in mL/min/kg, unit not repeated.

Answer with the recorded clearance for the molecule listed here: NC[C@H]1CC[C@H](C(=O)N[C@@H](Cc2ccccc2)c2cc(-c3ccc4c(N)n[nH]c4c3)ccn2)CC1 50

###

# Protocol: Oral bioavailability in beagle dog plasma at 0.29 mg/kg by LC-MS/MS method
# Format: ADME, organism-based, Canis lupus familiaris
Test readout: bioavailability (%)
Form entry: value (%) — number only.

Answer with the recorded bioavailability for the compound listed here: COC(=O)Nc1ccc(-c2cc([C@H](Cc3ccccc3)NC(=O)[C@H]3CC[C@H](CN)CC3)ncn2)cc1 66

###

# Test target: Plasma kallikrein (Homo sapiens, UniProt P03952)
# Sequence (P03952 20-390 limits assumed): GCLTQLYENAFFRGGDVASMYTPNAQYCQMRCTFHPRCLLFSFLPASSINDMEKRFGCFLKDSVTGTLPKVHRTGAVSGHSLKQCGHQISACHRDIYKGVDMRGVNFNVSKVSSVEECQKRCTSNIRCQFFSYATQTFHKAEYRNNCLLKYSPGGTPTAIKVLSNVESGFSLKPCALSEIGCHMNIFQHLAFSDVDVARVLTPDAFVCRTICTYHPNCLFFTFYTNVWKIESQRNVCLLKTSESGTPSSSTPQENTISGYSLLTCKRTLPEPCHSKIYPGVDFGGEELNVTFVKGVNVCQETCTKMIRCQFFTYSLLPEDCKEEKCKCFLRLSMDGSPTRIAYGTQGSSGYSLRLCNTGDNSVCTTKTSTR
# Sequence (P03952 391-638 limits assumed): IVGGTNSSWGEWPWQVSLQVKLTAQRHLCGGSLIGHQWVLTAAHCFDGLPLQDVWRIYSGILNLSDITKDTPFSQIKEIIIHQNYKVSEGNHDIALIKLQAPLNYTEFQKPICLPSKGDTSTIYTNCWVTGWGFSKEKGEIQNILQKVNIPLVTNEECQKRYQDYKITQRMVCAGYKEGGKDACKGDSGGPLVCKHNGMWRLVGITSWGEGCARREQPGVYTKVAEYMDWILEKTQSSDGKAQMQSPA
# Protocol: Inhibition of human plasma kallikrein assessed as reduction in release of p-nitroaniline after 10 to 120 mins by Michaelis-Menten equation analysis
Test readout: Ki (nM)
Give your result in nM as a bare value.

> print(dat)
                           structure.smiles  reported.value
1  NC[C@H]1CC[C@H](C(=O)N[C@@H](Cc2ccccc2)c2cc(-c3ccc4[nH]nc(O)c4c3)ccn2)CC1             550

Assign Ki to the following record: COC(=O)Nc1ccc(-c2ccnc([C@H](Cc3ccccc3)NC(=O)/C=C/c3cc(Cl)ccc3-n3cnnn3)c2)cc1 1850

Please report Ki for the following molecule: COC(=O)Nc1ccc(-c2ccnc([C@H](Cc3ccccc3)NC(=O)[C@H]3CC[C@H](CN)CC3)c2)cc1 42

###

# Protocol: Oral bioavailability in beagle dog plasma at 0.62 mg/kg by LC-MS/MS method
# Assay type: ADME, organism-based, Canis lupus familiaris
Test readout: bioavailability
Respond with a number, then the unit of measure.

Provide bioavailability value for the following molecule: COC(=O)Nc1ccc(-c2ccnc([C@H](Cc3ccccc3)NC(=O)[C@H]3CC[C@H](CN)CC3)c2)cc1 63%

###

# Protocol: Half life in beagle dog plasma at 0.28 mg/kg, iv and 0.62 mg/kg, po by LC-MS/MS method
# Assay type: ADME, organism-based, Canis lupus familiaris
Test readout: half-life

Could you please provide reported half-life for COC(=O)Nc1ccc(-c2ccnc([C@H](Cc3ccccc3)NC(=O)[C@H]3CC[C@H](CN)CC3)c2)cc1 ? Thanks! 2.7 h

###

# Protocol: AUC in beagle dog plasma at 0.25 mg/kg, iv and 0.2 mg/kg, po by LC-MS/MS method
# Assay type: ADME, organism-based, Canis lupus familiaris
Test readout: AUC (µM·h)
Please reply with the bare figure in µM·h and do not write the unit itself.

Report AUC for COC(=O)Nc1ccc(-c2ccnc([C@H](Cc3ccccc3)NC(=O)/C=C/c3cc(Cl)ccc3-n3cnnn3)c2)cc1 0.267

###

# Protocol: Half life in beagle dog plasma at 0.25 mg/kg, iv and 0.2 mg/kg, po by LC-MS/MS method
# Format: ADME, organism-based, Canis lupus familiaris
Test readout: half-life (h)
Express the result in h but write the number alone.

Retrieve half-life measured for COC(=O)Nc1ccc(-c2ccnc([C@H](Cc3ccccc3)NC(=O)/C=C/c3cc(Cl)ccc3-n3cnnn3)c2)cc1 and print it. 8

###

# Protocol: Inhibition of human […] chymotrypsin assessed as reduction in release of p-nitroaniline after 10 to 120 mins by Michaelis-Menten equation analysis
Test readout: Ki

Completed entries (count: 3):
> print(dat)
                           structure.smiles  reported.value
1  COC(=O)Nc1ccc(-c2ccnc([C@H](Cc3ccccc3)NC(=O)/C=C/c3cc(Cl)ccc3-n3cnnn3)c2)cc1         29.5 µM
2  NC[C@H]1CC[C@H](C(=O)N[C@@H](Cc2ccccc2)c2cc(-c3ccc4c(N)n[nH]c4c3)ccn2)CC1       > 20.8 µM
3  NC[C@H]1CC[C@H](C(=O)N[C@@H](Cc2ccccc2)c2cc(-c3ccc4[nH]nc(O)c4c3)ccn2)CC1       > 20.8 µM

Proceeding to the next compound to report its Ki.
Annotate the compound COC(=O)Nc1ccc(-c2ccnc([C@H](Cc3ccccc3)NC(=O)[C@H]3CC[C@H](CN)CC3)c2)cc1 with its measured Ki. > 20.8 µM

###

# Protocol: Half life in beagle dog plasma at 0.19 mg/kg, iv and 0.19 mg/kg, po by LC-MS/MS method
# Format: ADME, organism-based, Canis lupus familiaris
Test readout: half-life (h)
The response must be a number in h with no trailing unit.

Note down half-life recorded for COC(=O)Nc1ccc(-c2cc([C@H](Cc3ccccc3)NC(=O)/C=C/c3cc(Cl)ccc3-n3cnnn3)ccn2)cc1 3.7

###

# Test target: Coagulation factor IX (Homo sapiens, UniProt P00740)
# Sequence (P00740 47-191 limits assumed): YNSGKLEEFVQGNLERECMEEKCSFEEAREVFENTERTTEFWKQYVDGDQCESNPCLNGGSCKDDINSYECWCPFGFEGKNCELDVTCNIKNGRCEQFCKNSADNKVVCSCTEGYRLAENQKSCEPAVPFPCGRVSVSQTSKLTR
# Sequence (P00740 227-461 limits assumed): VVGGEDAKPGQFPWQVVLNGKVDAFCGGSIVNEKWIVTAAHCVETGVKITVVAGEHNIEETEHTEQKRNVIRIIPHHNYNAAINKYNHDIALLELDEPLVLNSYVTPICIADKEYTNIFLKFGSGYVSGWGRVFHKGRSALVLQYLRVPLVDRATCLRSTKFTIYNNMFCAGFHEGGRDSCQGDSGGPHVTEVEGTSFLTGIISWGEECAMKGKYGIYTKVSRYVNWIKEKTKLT
Test readout: Ki

Report value only: Ki, Coagulation factor IX (Homo sapiens, UniProt P00740), COC(=O)Nc1ccc(-c2ccnc([C@H](Cc3ccccc3)NC(=O)[C@H]3CC[C@H](CN)CC3)c2)cc1 > 34.9 µM

###

# Protocol: Volume of distribution at steady state in beagle dog plasma at 0.25 mg/kg, iv and 0.2 mg/kg, po by LC-MS/MS method
# Format: ADME, organism-based, Canis lupus familiaris
# Measurement parameters: read-out: Vdss
Test readout: Vd (L/kg)
Number in L/kg, nothing else.

Specify reported Vd for the molecule shown: COC(=O)Nc1ccc(-c2ccnc([C@H](Cc3ccccc3)NC(=O)/C=C/c3cc(Cl)ccc3-n3cnnn3)c2)cc1 3.9
